# Measurement target: OR28/OR7 (Anopheles gambiae, UniProt A0A1S4GFY3+Q7QCC7)
# Sequence (A0A1S4GFY3 entry or part of it): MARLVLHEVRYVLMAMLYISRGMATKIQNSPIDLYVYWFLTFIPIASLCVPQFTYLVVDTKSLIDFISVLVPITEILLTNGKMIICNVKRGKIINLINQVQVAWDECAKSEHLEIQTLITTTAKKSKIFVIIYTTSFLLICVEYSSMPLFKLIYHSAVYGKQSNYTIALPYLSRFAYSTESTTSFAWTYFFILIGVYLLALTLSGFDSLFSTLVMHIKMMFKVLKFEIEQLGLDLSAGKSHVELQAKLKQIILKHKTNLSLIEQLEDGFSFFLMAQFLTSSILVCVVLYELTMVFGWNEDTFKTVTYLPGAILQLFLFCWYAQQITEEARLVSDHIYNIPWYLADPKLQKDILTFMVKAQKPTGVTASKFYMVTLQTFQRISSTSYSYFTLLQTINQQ
# Sequence (Q7QCC7 whole entry): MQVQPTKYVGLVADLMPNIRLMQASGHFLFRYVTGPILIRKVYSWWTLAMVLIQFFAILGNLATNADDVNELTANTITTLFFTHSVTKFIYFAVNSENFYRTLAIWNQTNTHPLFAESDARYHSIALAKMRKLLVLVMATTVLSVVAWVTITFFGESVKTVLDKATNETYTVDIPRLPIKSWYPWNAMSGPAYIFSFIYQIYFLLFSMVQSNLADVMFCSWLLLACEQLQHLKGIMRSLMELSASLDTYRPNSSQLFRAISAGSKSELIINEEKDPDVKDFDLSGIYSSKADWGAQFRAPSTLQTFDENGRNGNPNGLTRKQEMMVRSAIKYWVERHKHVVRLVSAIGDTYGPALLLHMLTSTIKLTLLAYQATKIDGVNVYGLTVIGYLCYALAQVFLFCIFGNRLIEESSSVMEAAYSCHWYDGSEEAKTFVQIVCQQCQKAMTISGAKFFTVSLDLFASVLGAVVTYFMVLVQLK
# Assay overview: Ca2+-imaging of stable HEK293T cell line OR28/OR7
# Assay type: cell-based
# Particulars: ligand acetophenone 300 μM; read-out: IC50 OR28 OR7
pIC50: −log10 of the molar value.
Attribute measured: pIC50

# annotated cases, reported pIC50 shown
C=CCN(Cc1nccn1Cc1cccc(F)c1)C(=O)c1ccccc1F    4.30 to 4.70
Fc1cccc(Cl)c1Cn1ccnc1CN(CC1CCCC1)C1CC1    4.70 to 5.70
O=C(c1nccn1Cc1c(F)cccc1Cl)N(CC1CCCC1)C1CC1    > 5.70
CN(Cc1nccn1Cc1c(F)cccc1Cl)C(=O)C1CCCC1    4.70 to 5.70
O=C(C1CCCC1)N(Cc1nccn1CCc1c(F)cccc1Cl)C1CC1    4.70 to 5.70

## Input State the recorded pIC50 for this entry: CCN(CC)C(=O)c1cccc(C)c1 [DEET, N,N-diethyl-m-toluamide, reference compound]
## Output < 4.30

Cited source for all entries: patent US20130324522A1
